# STUDY_TARGET: recombinant H5 A/Vietnam/1203/04 (H5N1) (Influenza A virus A/Vietnam/1203/04 (H5N1))
# MEASUREMENT_DESCRIPTION: SPR, single cycle kinetics, HA immobilised
Entries and their pKd values follow.
// scale note: pKd = -log10(conc_M); give the bare number

Please review the entries below; each comes with its answer.
| BINDER | OBSERVED_MEASUREMENT |
| --- | --- |
| R2a-G8 (VHH) VHH: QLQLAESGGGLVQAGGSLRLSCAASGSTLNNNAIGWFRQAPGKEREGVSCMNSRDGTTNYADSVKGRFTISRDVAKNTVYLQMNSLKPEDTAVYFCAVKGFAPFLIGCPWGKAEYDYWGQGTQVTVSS | 8.05 |
| R1a-H6 (VHH) VHH: QVQLVESGGGLVQAGDSLRLSCTASVLTFSLYRVGWFRQAPGKEREFVAAIDWGDGPTTYADSVKGRFTISRDNAERTAYLQINSLKPEDTAVYYCGAGNTGSSDRSSSYVHWGQGTQVTVSS | 6.62 |
| R2b-D9 (VHH) VHH: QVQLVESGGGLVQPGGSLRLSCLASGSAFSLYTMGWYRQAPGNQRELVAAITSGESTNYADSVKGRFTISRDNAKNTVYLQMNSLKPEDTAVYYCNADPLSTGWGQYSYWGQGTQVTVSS | 8.80 |

Alright, here's another binder for you.
Data request: Give the measured pKd for R1a-B6 (VHH) VHH: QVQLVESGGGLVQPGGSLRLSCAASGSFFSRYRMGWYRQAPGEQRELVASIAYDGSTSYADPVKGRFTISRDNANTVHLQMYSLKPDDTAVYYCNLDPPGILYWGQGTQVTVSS
Data returned: 8.77
